Where these numbers come from: the METLIN SMRT retention time set (Domingo-Almenara et al. 2019)

The compounds listed here are annotated with their RP-LC retention time.
- method_summary: gradient 5% acetonitrile 3 min, to 50% in 2 min, to 85% in 15 min, held 3 min, 100 µL/min
- condition_notes: column: Zorbax Extend-C18 2.1 x 50 mm; eluents: water / acetonitrile, 0.1% formic acid
outcome_measure: RP-LC retention time (s)

[
  {
    "smiles_structure": "CN1C(=O)c2cccnc2Sc2cc(NC(=O)Cc3cccc(Cl)c3)ccc21",
    "outcome_measure": "RP-LC retention time",
    "experimental_value": 831
  },
  {
    "smiles_structure": "O=C1C(Nc2ccccc2)=CC(=O)c2ncccc21",
    "outcome_measure": "RP-LC retention time",
    "experimental_value": 734
  },
  {
    "smiles_structure": "Cn1cc(S(=O)(=O)N2CCC(C(=O)Nc3nccs3)CC2)cc1C(=O)N1CCCC1",
    "outcome_measure": "RP-LC retention time",
    "experimental_value": 662
  },
  {
    "smiles_structure": "O=S(=O)(c1ccc(-c2nnc(C3CCC3)o2)o1)N1CCN(C2CCCCC2)CC1",
    "outcome_measure": "RP-LC retention time",
    "experimental_value": 690
  },
  {
    "smiles_structure": "COc1ccc(-c2nc3cc(C)ccn3c2NC(=O)c2cccc(C(F)(F)F)c2)cc1OC",
    "outcome_measure": "RP-LC retention time",
    "experimental_value": 729
  },
  {
    "smiles_structure": "CCOC(=O)c1csc(NC(=O)c2ccn(CC)n2)n1",
    "outcome_measure": "RP-LC retention time",
    "experimental_value": 702
  }
]

* * *

The compounds listed here are annotated with their RP-LC retention time.
- method_summary: gradient 5% acetonitrile 3 min, to 50% in 2 min, to 85% in 15 min, held 3 min, 100 µL/min
- condition_notes: column: Zorbax Extend-C18 2.1 x 50 mm; eluents: water / acetonitrile, 0.1% formic acid

[
  {
    "smiles_structure": "COc1cccc(/C=C/c2nccc3ccccc23)c1OC",
    "unit_label": "s",
    "RP-LC retention time": 768
  },
  {
    "smiles_structure": "CCN1CCn2cc(S(=O)(=O)N3CCN(c4cccc(C)c4)CC3)cc2C1=O",
    "unit_label": "s",
    "RP-LC retention time": 858
  },
  {
    "smiles_structure": "Cc1ccc(NS(=O)(=O)c2cc3n(c2)CCCNC3=O)c(F)c1",
    "unit_label": "s",
    "RP-LC retention time": 663
  }
]

* * *

- method_summary: gradient 5% acetonitrile 3 min, to 50% in 2 min, to 85% in 15 min, held 3 min, 100 µL/min
- condition_notes: column: Zorbax Extend-C18 2.1 x 50 mm; eluents: water / acetonitrile, 0.1% formic acid
The molecules listed here are annotated with their RP-LC retention time.
outcome_measure: RP-LC retention time (s)

[
  {
    "molecule": "CCCCNC(=O)CSc1nnc(C)c2c(C)n(-c3ccccc3)nc12",
    "unit_label": "s",
    "experimental_value": 646
  },
  {
    "molecule": "COCCN1C(=O)[C@H]2CN(Cc3ccc(F)c(F)c3)C[C@H]2C1=O",
    "unit_label": "s",
    "experimental_value": 623
  },
  {
    "molecule": "CC(=O)c1cccc(NC(=O)COc2cc(C)nc(N3CCCC3)n2)c1",
    "unit_label": "s",
    "experimental_value": 616
  },
  {
    "molecule": "O=C(Nc1cccc(F)c1)N1CCCC1c1nc(-c2cccc(Cl)c2)no1 (centres undefined)",
    "unit_label": "s",
    "experimental_value": 1080
  },
  {
    "molecule": "Cc1ccc(NC(=O)C2CC(=O)N(CCc3c[nH]c4ccc(F)cc34)C2)c(C)c1 (centres undefined)",
    "unit_label": "s",
    "experimental_value": 847
  },
  {
    "molecule": "CCOC(=O)C1CCCN(C(=O)C2CCN(c3cc(N4CCCCC4)ncn3)CC2)C1 (centres undefined)",
    "unit_label": "s",
    "experimental_value": 666
  },
  {
    "molecule": "COc1ccc(NC(=O)C2CCCN(c3nc4c(s3)c(C)nn4-c3ccccc3)C2)c(OC)c1 (centres undefined)",
    "unit_label": "s",
    "experimental_value": 1160
  },
  {
    "molecule": "COc1ccc(CN(C(=O)COc2ccc(Cl)cc2C)C2CCS(=O)(=O)C2)cc1OC (centres undefined)",
    "unit_label": "s",
    "experimental_value": 938
  },
  {
    "molecule": "COc1nccnc1NC1CCN(C(=O)Cc2ccsc2)CC1",
    "unit_label": "s",
    "experimental_value": 921
  },
  {
    "molecule": "COc1ccc(NC(=O)Nc2nccn(-c3ccc(Cl)cc3)c2=O)cc1OC",
    "unit_label": "s",
    "experimental_value": 854
  },
  {
    "molecule": "Cc1nn(-c2ccccc2)cc1C(=O)N1CCC(CC(=O)NCCc2c[nH]c3ccccc23)CC1",
    "unit_label": "s",
    "experimental_value": 751
  },
  {
    "molecule": "Cc1cc(Cl)ccc1NC(=O)Cn1cccc1-c1nnc(C2CC2)o1",
    "unit_label": "s",
    "experimental_value": 904
  },
  {
    "molecule": "O=C(Nc1ccccn1)c1ccc(S(=O)(=O)NC2CCCC2)cc1",
    "unit_label": "s",
    "experimental_value": 722
  },
  {
    "molecule": "CS(=O)(=O)N1CCC(OC2CCN(C(=O)Nc3cccc(Cl)c3F)CC2)CC1",
    "unit_label": "s",
    "experimental_value": 787
  }
]
